System: RPMI-8226
Experiment: NCI tumour cell line growth inhibition, 48 h
Active and inactive are the calls of the source. No stated cut-off is given here; in the data, active = GI50 up to about 1.1 µM and inactive = higher.
Labels: t = active, f = inactive

>  <molecule>
CCCN1C(=O)/C(=C\c2ccc(OC)c(OC)c2)S/C1=N\c1ccccc1

>  <groupLabel>
f

$$$$
>  <molecule>
CC(C)(C)C1CCC2c3c([nH]c4ccccc34)C3C(=O)N(c4cc(Cl)ccc4Cl)C(=O)C3C2C1 (stereo not drawn)

>  <groupLabel>
f

$$$$
>  <molecule>
CC(=O)NNc1nc(C)c(C(=O)NNC(=O)C(=O)Nc2ccc([N+](=O)[O-])cc2[N+](=O)[O-])s1

>  <groupLabel>
f

$$$$
>  <molecule>
N#Cc1c(N)nc(Sc2ccccc2N)c(C#N)c1-c1ccc(Cl)cc1

>  <groupLabel>
f

$$$$
>  <molecule>
COc1ccc(/C=N\N2C(=O)Cc3ccccc32)cc1

>  <groupLabel>
f

$$$$
>  <molecule>
Oc1cc(-c2cccc(C(F)(F)F)c2)nc2cc3c(cc12)OCO3

>  <groupLabel>
f

$$$$
>  <molecule>
O=P1(Oc2ccccc2)NCc2ncccc2O1 (stereo not drawn)

>  <groupLabel>
f

$$$$
>  <molecule>
COc1ccc(C(C#N)Cc2cc(OC)c(OC)c(OC)c2)cc1 (stereo not drawn)

>  <groupLabel>
f

$$$$
>  <molecule>
Cc1ccc(/N=N/C(=O)NNc2ccc(C)c([N+](=O)[O-])c2)cc1[N+](=O)[O-]

>  <groupLabel>
f

$$$$
>  <molecule>
CC1=C(C(=O)O)N2C(=O)[C@@H](NC(=O)C(c3ccccc3)N3CSC(=S)N(C(C)C)C3)C2SC1 (stereo partly drawn)

>  <groupLabel>
f

$$$$
>  <molecule>
c1ccc(Nc2nnc(Cn3ccc4ccccc43)s2)cc1

>  <groupLabel>
f

$$$$
>  <molecule>
Nc1c(S(=O)(=O)O)cc2cc(S(=O)(=O)O)ccc2c1/N=N/c1ccc(-c2ccc(/N=N/c3c(N)c(S(=O)(=O)O)cc4cc(S(=O)(=O)O)ccc34)c(S(=O)(=O)O)c2)cc1

>  <groupLabel>
f

$$$$
>  <molecule>
CC(C)=NOC(=O)CNC(=O)C(Cc1ccccc1)NC(=O)C(C)NC(=O)OC(C)(C)C (stereo not drawn)

>  <groupLabel>
f

$$$$
>  <molecule>
COc1ccc(N2C(=O)C3c4[nH]c5ccc(OCc6ccccc6)cc5c4C4CCC(c5ccccc5)CC4C3C2=O)cc1 (stereo not drawn)

>  <groupLabel>
f

$$$$
>  <molecule>
COc1cccc(-c2cc(O)c3cc(OC)c(OC)cc3n2)c1

>  <groupLabel>
f

$$$$
>  <molecule>
O=c1oc2c(ccc3ccccc32)cc1C1=CSC2=NCCN12

>  <groupLabel>
f

$$$$
>  <molecule>
COc1ccc2[nH]c(CCNC(=O)c3cc([N+](=O)[O-])cc([N+](=O)[O-])c3)cc2c1

>  <groupLabel>
f

$$$$
>  <molecule>
O=C(NCCCCCCNC(=O)c1cc(-c2ccccc2)nc2ccccc12)c1cc(-c2ccccc2)nc2ccccc12

>  <groupLabel>
f

$$$$
>  <molecule>
COC(=O)c1cc2c(cc1CC1Cc3cc4c(cc3C1)CCC4)CCC2

>  <groupLabel>
f

$$$$
>  <molecule>
COc1ccc(C)cc1NC(=S)C#N

>  <groupLabel>
f

$$$$
>  <molecule>
CSc1nc(NC2OC(COC(C)=O)C(OC(C)=O)C(OC(C)=O)C2OC(C)=O)c(/N=C\C=N/c2c(NC3OC(COC(C)=O)C(OC(C)=O)C(OC(C)=O)C3OC(C)=O)nc(SC)n(C)c2=O)c(=O)n1C (stereo not drawn)

>  <groupLabel>
f

$$$$
>  <molecule>
N/N=C1\C(=O)N(Cc2ccccc2)C(=O)C1C(=O)NCc1ccccc1 (stereo not drawn)

>  <groupLabel>
f

$$$$
>  <molecule>
CC1C(c2ccc(F)cc2)c2cc3c(cc2OC1N1CCCC1)OCO3 (stereo not drawn)

>  <groupLabel>
f

$$$$
>  <molecule>
CCN1CCN(c2ccc(Nc3ccnc4ccc5nn(C)nc5c34)cc2)CC1

>  <groupLabel>
f

$$$$
>  <molecule>
CC(C)(C)C(=O)C1CC(=O)c2ccccc2C1=O (stereo not drawn)

>  <groupLabel>
f

$$$$
>  <molecule>
CC(=O)O[C@H]1C(=O)[C@@]2(C)[C@H]([C@H](OC(=O)c3cccc(C(F)(F)F)c3)[C@]3(O)C[C@H](OC(=O)[C@H](O)[C@@H](NC(=O)c4ccccc4)c4ccccc4)C(C)=C1C3(C)C)[C@]1(OC(C)=O)CO[C@@H]1C[C@@H]2O

>  <groupLabel>
t

$$$$
>  <molecule>
O=C(NN1C(=O)C(Cl)C1c1ccc([N+](=O)[O-])cc1)c1ccccc1O (stereo not drawn)

>  <groupLabel>
f

$$$$
>  <molecule>
CCOC(=O)NN(C(=O)OCC)C(C(=O)C1=CCCCC1)N(NC(=O)OCC)C(=O)OCC

>  <groupLabel>
f

$$$$
>  <molecule>
Cc1c2cc[n+](CCN3CCCCC3)cc2c(C)c2c1[nH]c1ccc(O)cc12

>  <groupLabel>
f

$$$$
>  <molecule>
Cc1cc(C(=O)NCCN(C)C)c2nc3ccccc3nc2c1

>  <groupLabel>
f

$$$$
>  <molecule>
CCOC(=O)CSc1nc(-c2ccc(Cl)cc2)c(C#N)c(=O)[nH]1

>  <groupLabel>
f

$$$$
>  <molecule>
C/N=c1/oc2ccccc2cc1C(N)=O

>  <groupLabel>
f

$$$$
>  <molecule>
O=C1C(=O)N(c2cccc(C(F)(F)F)c2)C(=O)C(=O)C1c1nc2ccccc2s1

>  <groupLabel>
f

$$$$
>  <molecule>
CCOC(=O)C1=C(C)N(NC(N)=O)C2(O)CCCC(=O)C12C (stereo not drawn)

>  <groupLabel>
f

$$$$
>  <molecule>
O=C1c2cc3ccccc3cc2C2(c3ccc(Cl)cc3)NCCN12 (stereo not drawn)

>  <groupLabel>
f

$$$$
>  <molecule>
O=C(Nc1nc(C23CC4CC(CC(C4)C2)C3)cs1)c1cc2cc(Br)cc(Br)c2oc1=O

>  <groupLabel>
f

$$$$
>  <molecule>
CC(=O)[C@@H]1C/C(=C\OCc2ccccc2)O[C@H]1C

>  <groupLabel>
f

$$$$
>  <molecule>
FC(F)(F)c1nc2ccc(SSc3ccc4nc(C(F)(F)F)[nH]c4c3)cc2[nH]1

>  <groupLabel>
f

$$$$

---

Tested on: SW-620
Assay: NCI tumour cell line growth inhibition, 48 h
Active and inactive are the calls of the source. Cut-off read from the data, not from the text of the source: active = GI50 up to about 1.1 µM and inactive = higher.
Each item that follows carries a reported GI50.

>  <compound>
CC1=C(C(=O)NCc2ccccc2)C(c2ccc([N+](=O)[O-])cc2)C(C(=O)NCc2ccccc2)=C(C)N1

>  <subjectOfTest>
SW-620

>  <GI50>
63.7 µM (inactive)

$$$$
>  <compound>
[N-]=[N+]=CC(=O)OC1CCOCC1

>  <subjectOfTest>
SW-620

>  <GI50>
> 100 µM (inactive)

$$$$
>  <compound>
O=C(O)c1ccc(Nc2cnc3ccc(C(F)(F)F)cc3n2)cc1

>  <subjectOfTest>
SW-620

>  <GI50>
20.9 µM (inactive)

$$$$
>  <compound>
Cc1cccc(CC(C)(C)C)c1NC(=O)C(=O)C(C(=O)c1ccc2ccccc2c1)C1OC(=O)c2ccccc21 (stereo not given)

>  <subjectOfTest>
SW-620

>  <GI50>
6.78 µM (inactive)

$$$$
>  <compound>
O=C(/C=C/c1ccccc1)CC1OC(=O)c2ccccc21 (stereo not given)

>  <subjectOfTest>
SW-620

>  <GI50>
84.3 µM (inactive)

$$$$

---

System: NCI-H460
Test: NCI tumour cell line growth inhibition, 48 h
Calls of active or inactive are those of the source. Rule as the data show it: active = GI50 up to about 1.1 µM and inactive = higher.
recordedMetric: GI50

>  <compound>
c1cc(-c2ccc(-c3ccc(-c4ccc(-c5ccncc5)o4)cc3)o2)ccn1

>  <subjectOfTest>
NCI-H460

>  <result>
15.2 µM (inactive)

$$$$
>  <compound>
O=C(O)Cn1ccc(=O)c2c([N+](=O)[O-])cccc21

>  <subjectOfTest>
NCI-H460

>  <result>
> 100 µM (inactive)

$$$$
>  <compound>
N#CC1C2CCC3(CC2CCN1C(=O)c1ccccc1)OCCO3 (configuration not stated)

>  <subjectOfTest>
NCI-H460

>  <result>
> 100 µM (inactive)

$$$$
>  <compound>
CCCCCCc1cc2cc(C(=O)NCc3ccccc3)c(=N)oc2cc1O

>  <subjectOfTest>
NCI-H460

>  <result>
> 100 µM (inactive)

$$$$
>  <compound>
COC(=O)C1(C(=O)OC)CC(=O)c2c(OC(=O)c3cccc(OC)c3C#N)ccc(OC(=O)c3cccc(OC)c3C#N)c2C1

>  <subjectOfTest>
NCI-H460

>  <result>
> 100 µM (inactive)

$$$$
>  <compound>
CCC1C(c2cccc(OC)c2O)c2cc3c(cc2OC1N1CCCC1)OCO3 (configuration not stated)

>  <subjectOfTest>
NCI-H460

>  <result>
20.2 µM (inactive)

$$$$
>  <compound>
c1ccc2c(c1)nc1n2CCCn2ccnc2-1

>  <subjectOfTest>
NCI-H460

>  <result>
> 100 µM (inactive)

$$$$
>  <compound>
CC/C(Cl)=N\OC(=O)Nc1ccc(C#N)cc1

>  <subjectOfTest>
NCI-H460

>  <result>
19.5 µM (inactive)

$$$$
>  <compound>
CC1(C)CC(=O)c2c(N)n[nH]c2C1

>  <subjectOfTest>
NCI-H460

>  <result>
> 100 µM (inactive)

$$$$
>  <compound>
CCn1c(=O)c2c3ccc(OC(C)=O)cc3[nH]c2c2ccc(OC(C)=O)cc21

>  <subjectOfTest>
NCI-H460

>  <result>
29 µM (inactive)

$$$$
>  <compound>
O=C(O)c1ccccc1CC1Cc2ccccc2C1

>  <subjectOfTest>
NCI-H460

>  <result>
> 100 µM (inactive)

$$$$
>  <compound>
Cc1ccc(/N=C2/SC(c3ccc(C)cc3)(c3ccc(C)cc3)c3ccccc32)cc1

>  <subjectOfTest>
NCI-H460

>  <result>
> 100 µM (inactive)

$$$$
>  <compound>
[N-]=[N+]=NC1CC(n2ccc(N)nc2=O)OC1COP(=O)(O)OP(=O)(O)OP(=O)(O)O (configuration not stated)

>  <subjectOfTest>
NCI-H460

>  <result>
> 100 µM (inactive)

$$$$
>  <compound>
O=C(O)[C@@H]1OCCOCCO[C@@H](C(=O)O)[C@H](C(=O)O)OCCOCCO[C@H]1C(=O)O

>  <subjectOfTest>
NCI-H460

>  <result>
> 64.4 µM (inactive)

$$$$
>  <compound>
CC1=CCC[C@H]2[C@](C)(CC3=CC(=O)C(Sc4ccccc4)=CC3=O)[C@@H](C)CC[C@]12C

>  <subjectOfTest>
NCI-H460

>  <result>
20 µM (inactive)

$$$$
>  <compound>
[N-]=[N+]=Nc1c(-c2ccccc2)c(Cl)nc2ccccc12

>  <subjectOfTest>
NCI-H460

>  <result>
31.5 µM (inactive)

$$$$
>  <compound>
Cc1cccc2c(=O)cc(-c3ccccc3)[nH]c12

>  <subjectOfTest>
NCI-H460

>  <result>
3.95 µM (inactive)

$$$$
>  <compound>
O=C1CC[C@H]2CNC(=O)C[C@H]2C1

>  <subjectOfTest>
NCI-H460

>  <result>
> 100 µM (inactive)

$$$$
>  <compound>
O=C(NC12CC3CC(CC(C3)C1)C2)n1cnc2cncnc21

>  <subjectOfTest>
NCI-H460

>  <result>
32.3 µM (inactive)

$$$$
>  <compound>
CC(=O)CC1CCC(=O)CCC(=O)OC(CC(C)=O)CCC(=O)CCC(=O)O1 (configuration not stated)

>  <subjectOfTest>
NCI-H460

>  <result>
> 100 µM (inactive)

$$$$
>  <compound>
COc1cc([C@H]2c3cc(O)c(OC)cc3C[C@]3(O)[C@@H]2CO[C@@H]3O)ccc1O

>  <subjectOfTest>
NCI-H460

>  <result>
> 100 µM (inactive)

$$$$
>  <compound>
COc1cc2c(cc1OCCCOS(C)(=O)=O)N=C[C@@H]1CCCN1C2=O

>  <subjectOfTest>
NCI-H460

>  <result>
> 100 µM (inactive)

$$$$
